- assay.system: MAP kinase-interacting serine/threonine-protein kinase 1 (Homo sapiens)
- test: Inhibition of Mnk1 (unknown origin) by ADP-Glo assay
metric.name: IC50 (µM)

> print(dat)
                               input.smiles  metric.name  scale.unit  reported
1  CN(Cc1ccon1)Cc1cc(-c2ccnc3cc(Cl)ccc23)ccc1O         IC50          µM       4.7

###

- assay.system: MAP kinase-interacting serine/threonine-protein kinase 2 (Homo sapiens)
- test: Inhibition of Mnk2 (unknown origin)
Entries and their IC50
metric.name: IC50 (nM)

> print(dat)
                                input.smiles  metric.name  reported
 1  CN(C)CCCNC(=O)c1nc2c(N3CCc4cc(F)ccc43)ncnc2s1         IC50         2
 2  O=C(NCC1CCNCC1)c1nc2c(N3CCc4cc(Cl)ccc43)ncnc2s1         IC50      3.16
 3      Cn1ccc2ncnc(Nc3ccc(F)cc3OC3CCCC3)c21         IC50      31.6
 4  O=C(NCC1CCNCC1)c1nc2c(N3CCc4cc(F)ccc43)ncnc2s1         IC50      3.98
 5      Cn1ccc2ncnc(Nc3ccc(F)cc3OC(CF)CF)c21         IC50      50.1
 6  CC(C)Oc1cc(F)ccc1Nc1ncnc2cc(C(=O)NCC3CCNCC3)n(C)c12         IC50      39.8
 7  CN(C)CCCNC(=O)c1cc2ncnc(N3CCc4cc(F)ccc43)c2n1C         IC50      12.6
 8  Cn1ccc2ncnc(Nc3ccc(F)cc3O[C@@H]3CCCOC3)c21         IC50      31.6
 9  CC1(C)CN(c2ncnc3sc(C(=O)NCC4CCNCC4)nc23)c2ccccc21         IC50      2.51
10  CC(C)Oc1cc(F)ccc1Nc1ncnc2cc(C(=O)NCCCN(C)C)n(C)c12         IC50      39.8
11  CC(C)Oc1cc(F)ccc1Nc1ncnc2sc(C(=O)NCC3CCNCC3)nc12         IC50      50.1
12  CN(C)CCCNC(=O)c1nc2c(N3CCc4ccccc43)ncnc2s1         IC50      7.94
13      CC(C)Oc1cc(C#N)ccc1Nc1ncnc2ccn(C)c12         IC50      25.1
14  CC(C)Oc1cc(F)ccc1Nc1ncnc2sc(C(=O)NCCN3CCNCC3)nc12         IC50      31.6
15          Fc1ccc2c(c1)CCN2c1ncnc2cc[nH]c12         IC50      31.6
16  CNC(=O)c1nc2c(Nc3ccc(F)cc3OC(C)C)ncnc2s1         IC50      31.6
17  CN(C)CCCNC(=O)c1nc2c(N3CC(C)(C)c4ccccc43)ncnc2s1         IC50      3.98

###

- assay.system: MAP kinase-interacting serine/threonine-protein kinase 2 (Homo sapiens, UniProt Q9HBH9)
- Sequence (Q9HBH9 whole entry): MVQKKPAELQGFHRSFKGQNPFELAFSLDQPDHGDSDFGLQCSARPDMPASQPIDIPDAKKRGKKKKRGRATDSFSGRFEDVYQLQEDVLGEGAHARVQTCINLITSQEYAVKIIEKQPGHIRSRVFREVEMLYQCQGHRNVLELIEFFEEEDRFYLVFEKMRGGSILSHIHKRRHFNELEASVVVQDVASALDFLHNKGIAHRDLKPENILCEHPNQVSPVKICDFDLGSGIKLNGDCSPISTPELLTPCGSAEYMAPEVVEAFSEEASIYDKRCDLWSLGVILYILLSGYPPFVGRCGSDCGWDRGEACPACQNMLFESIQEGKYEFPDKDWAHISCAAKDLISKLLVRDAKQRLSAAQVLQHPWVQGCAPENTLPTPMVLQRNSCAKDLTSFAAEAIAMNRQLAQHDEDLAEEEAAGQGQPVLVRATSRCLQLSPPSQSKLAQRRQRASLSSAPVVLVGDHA
- test: Inhibition of Mnk2 (unknown origin) by ADP-Glo assay
pIC50: −log10 of the molar value.
metric.name: pIC50

> print(dat)
                               input.smiles  metric.name  reported
1  CN(Cc1ccon1)Cc1cc(-c2ccnc3cc(Cl)ccc23)ccc1O        pIC50      5.59

###

- test: Volume of distribution at steady state in female NMRI-nu/nu mouse
- Assay type: ADME
- run.parameters: in vivo, read-out: Vdss
metric.name: Vd (L/kg)

> print(dat)
                               input.smiles  reported
1  C[C@H](CN)Oc1ccc2ncc(-c3cc4ccccc4o3)n2n1         6

###

- assay.system: MAP kinase-interacting serine/threonine-protein kinase 1 (Homo sapiens)
- test: Inhibition of inactive form of MNK1 (unknown origin)
metric.name: IC50 (nM)

> print(dat)
                          input.smiles  reported
1  CN1CCC(C(=O)Nc2ncc(-c3ccccc3)s2)CC1        21

###

- assay.system: Tyrosine-protein kinase BTK (Homo sapiens, UniProt Q06187)
- Sequence (Q06187 whole entry): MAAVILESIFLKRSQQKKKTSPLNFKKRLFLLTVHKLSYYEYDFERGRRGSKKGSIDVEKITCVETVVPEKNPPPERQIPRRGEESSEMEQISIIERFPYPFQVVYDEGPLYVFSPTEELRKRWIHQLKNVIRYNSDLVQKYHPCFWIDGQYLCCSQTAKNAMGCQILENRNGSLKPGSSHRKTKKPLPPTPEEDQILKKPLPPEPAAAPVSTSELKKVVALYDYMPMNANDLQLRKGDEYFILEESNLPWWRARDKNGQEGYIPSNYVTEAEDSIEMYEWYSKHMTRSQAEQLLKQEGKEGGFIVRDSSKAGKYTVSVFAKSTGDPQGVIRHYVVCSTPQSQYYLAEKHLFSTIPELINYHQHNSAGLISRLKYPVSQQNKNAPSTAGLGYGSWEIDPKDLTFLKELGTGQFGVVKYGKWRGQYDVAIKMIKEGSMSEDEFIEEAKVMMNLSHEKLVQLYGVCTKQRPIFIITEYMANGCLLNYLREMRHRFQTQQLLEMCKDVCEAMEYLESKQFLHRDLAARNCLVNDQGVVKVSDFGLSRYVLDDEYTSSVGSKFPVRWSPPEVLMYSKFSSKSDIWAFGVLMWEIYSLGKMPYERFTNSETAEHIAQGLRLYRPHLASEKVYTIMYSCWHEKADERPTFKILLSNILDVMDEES
- test: Inhibition of FLAG-tagged BTK (unknown origin) transfected into HEK293T cells incubated for 30 mins followed by ATP addition measured after 20 mins by Western blotting analysis
metric.name: IC50 (nM)

> print(dat)
                               input.smiles  scale.unit  reported
1  C=CC(=O)Nc1cc(-n2c(=O)ccc3cnc4ccc(-c5cn[nH]c5)cc4c32)ccc1C          nM       9.4

###

Form field: Ki (one value per entry).
- assay.system: MAP kinase-interacting serine/threonine-protein kinase 2 (Homo sapiens)
- test: Binding affinity to Mnk2 (unknown origin)
metric.name: Ki (nM)

> print(dat)
                     input.smiles  scale.unit  reported
1  COc1ncc(C)cc1Nc1ncnc2[nH]ccc12          nM      1320
2    Fc1ccc(Nc2ncnc3[nH]ccc23)nc1          nM       430

###

- test: Intermediate elimination half life in male RH:Foxn1 nude rat
- Type: ADME
- run.parameters: in vivo, read-out: beta t1/2 (converted)
metric.name: half-life (h)

> print(dat)
                               input.smiles  scale.unit  reported
1  C[C@H](CN)Oc1ccc2ncc(-c3cc4ccccc4o3)n2n1           h       1.2

###

- assay.system: MAP kinase-interacting serine/threonine-protein kinase 1 (Homo sapiens, UniProt Q9BUB5)
- Sequence (Q9BUB5 whole entry): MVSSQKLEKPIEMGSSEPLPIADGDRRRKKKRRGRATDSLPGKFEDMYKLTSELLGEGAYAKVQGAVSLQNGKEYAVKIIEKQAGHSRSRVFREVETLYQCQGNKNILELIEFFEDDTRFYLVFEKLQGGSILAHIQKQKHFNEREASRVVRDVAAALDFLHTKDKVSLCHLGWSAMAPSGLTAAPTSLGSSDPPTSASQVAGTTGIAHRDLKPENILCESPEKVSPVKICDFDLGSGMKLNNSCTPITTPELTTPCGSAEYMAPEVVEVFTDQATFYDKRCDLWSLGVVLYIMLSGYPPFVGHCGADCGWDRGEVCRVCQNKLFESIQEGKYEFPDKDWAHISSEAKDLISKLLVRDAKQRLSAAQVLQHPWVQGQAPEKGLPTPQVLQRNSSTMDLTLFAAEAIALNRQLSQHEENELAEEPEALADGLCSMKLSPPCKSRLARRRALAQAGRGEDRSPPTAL
- test: Inhibition of Mnk1 (unknown origin)
- run.parameters: read-out: pIC50 (converted)
The following compounds are listed with their measured log10 IC50 values.
metric.name: log10 IC50 (log10 of the value in nM)

> print(dat)
                                input.smiles  reported
 1  O=C(NCC1CCNCC1)c1nc2c(N3CCc4cc(F)ccc43)ncnc2s1      0.70
 2  CC(C)Oc1cc(F)ccc1Nc1ncnc2cc(C(=O)NCC3CCNCC3)n(C)c12      1.60
 3  Cn1ccc2ncnc(Nc3ccc(F)cc3O[C@@H]3CCCOC3)c21      1.80
 4  CC(C)Oc1cc(F)ccc1Nc1ncnc2sc(C(=O)NCCN3CCNCC3)nc12      1.70
 5      CC(C)Oc1cc(C#N)ccc1Nc1ncnc2ccn(C)c12      1.70
 6  CN(C)CCCNC(=O)c1nc2c(N3CCc4cc(F)ccc43)ncnc2s1      0.40
 7  CN(C)CCCNC(=O)c1nc2c(N3CC(C)(C)c4ccccc43)ncnc2s1      0.80
 8          Fc1ccc2c(c1)CCN2c1ncnc2cc[nH]c12      1.60
 9      Cn1ccc2ncnc(Nc3ccc(F)cc3OC(CF)CF)c21      2.20
10      Cn1ccc2ncnc(Nc3ccc(F)cc3OC3CCCC3)c21      2.10
11  CC(C)Oc1cc(F)ccc1Nc1ncnc2cc(C(=O)NCCCN(C)C)n(C)c12      1.70

###

- assay.system: MAP kinase-interacting serine/threonine-protein kinase 2 (Homo sapiens, UniProt Q9HBH9)
- test: Binding affinity to His-tagged Mnk2 (unknown origin) using D 202 TATKSGSTTKNR 214 as substrate by TR-FRET assay
pKi: −log10 of the molar value.
metric.name: pKi

> print(dat)
                               input.smiles                              assay.system  reported
1  Cc1c(-c2ccnc(Nc3ccccc3OC(F)F)n2)sc(=O)n1C  MAP kinase-interacting serine/threonine-protein kinase 2 (Homo sapiens, UniProt Q9HBH9)      6.92

###

- assay.system: MAP kinase-interacting serine/threonine-protein kinase 2 (Homo sapiens)
- test: Inhibition of His-tagged Mnk2 (unknown origin) using eIF4E-derived (D 202 TATKSGSTTKNR 214) peptide as substrate incubated for 90 mins by IMAP TR-FRET assay
pIC50: −log10 of the molar value.
metric.name: pIC50

> print(dat)
                               input.smiles                              assay.system  reported
1  Cc1c(C(=O)O)sc2ncnc(Nc3ccc(F)cc3OC(CF)CF)c12  MAP kinase-interacting serine/threonine-protein kinase 2 (Homo sapiens)      4.30

###

- test: Clearance in female NMRI-nu/nu mouse
- Format: ADME
- run.parameters: in vivo
metric.name: clearance (L/h/kg)

> print(dat)
                               input.smiles  metric.name  reported
1  C[C@H](CN)Oc1ccc2ncc(-c3cc4ccccc4o3)n2n1    clearance      2.34
